Target: AChE (EC 3.1.1.7) from electric eel (Electrophorus electricus, UniProt O42275)
Construct: purchased Sigma-Aldrich
Sequence (O42275 24-633): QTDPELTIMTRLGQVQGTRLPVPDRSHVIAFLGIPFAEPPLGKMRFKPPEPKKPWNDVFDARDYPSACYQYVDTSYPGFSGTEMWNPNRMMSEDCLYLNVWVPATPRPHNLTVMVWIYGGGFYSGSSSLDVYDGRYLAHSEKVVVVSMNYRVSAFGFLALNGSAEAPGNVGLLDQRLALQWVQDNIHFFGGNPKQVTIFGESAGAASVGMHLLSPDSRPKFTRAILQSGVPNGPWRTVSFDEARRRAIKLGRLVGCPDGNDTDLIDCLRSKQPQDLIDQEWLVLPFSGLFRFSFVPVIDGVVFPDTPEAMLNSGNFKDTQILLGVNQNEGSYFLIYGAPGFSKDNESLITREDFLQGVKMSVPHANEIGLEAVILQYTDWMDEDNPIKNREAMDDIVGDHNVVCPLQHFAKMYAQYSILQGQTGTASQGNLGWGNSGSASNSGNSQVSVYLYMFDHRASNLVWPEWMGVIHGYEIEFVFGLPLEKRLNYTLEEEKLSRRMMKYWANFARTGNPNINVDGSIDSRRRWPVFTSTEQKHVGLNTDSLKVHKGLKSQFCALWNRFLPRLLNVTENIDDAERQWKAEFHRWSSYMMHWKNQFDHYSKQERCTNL
Experiment: biochemical
Format: biochemical
Source text: The data were expressed as IC50 values (Table 1). […]
Would you kindly list IC50 for each of these molecules?
Field format: number, assumed µM, no unit text.

// IC50 lookup, key: O=C(NCC1CCN(Cc2ccccc2Cl)CC1)c1ccc2[nH]ncc2c1 [Compound 11c]
5.44

// IC50 lookup, key: O=C(NCC1CCN(Cc2ccccc2Cl)CC1)c1ccc2[nH]cnc2c1 [Compound 11e]
7.48

// IC50 lookup, key: COc1ccc(CN2CCC(CNC(=O)c3ccc4[nH]ccc4c3)CC2)cc1 [Compound 11a]
38.1

// IC50 lookup, key: O=C(NCC1CCN(Cc2ccccc2)CC1)c1ccc2[nH]nnc2c1 [Compound 11f]
0.46

###

Would you kindly list pIC50 for each of these compounds?
biological target: AChE (EC 3.1.1.7) from electric eel (Electrophorus electricus, UniProt O42275); construct: purchased Sigma-Aldrich; assay: biochemical; format: biochemical; details: eeAChE; mean ± SEM of triplicate independent experiments; read-out: AChE IC50
Remember, pIC50 is on a log scale: it is -log10 of the molar concentration.

// pIC50 lookup, key: Cn1c(=O)n(C)c2cc(C(=O)NCC3CCN(Cc4ccc(F)cc4)CC3)ccc21
5.33

// pIC50 lookup, key: Cn1c(=O)n(C)c2cc(C(=O)NCC3CCN(Cc4cccc(Cl)c4)CC3)ccc21
5.22

// pIC50 lookup, key: COc1cccc(CN2CCC(CNS(=O)(=O)c3ccc4c(c3)n(C)c(=O)n4C)CC2)c1 [Compound 15e]
5.03

// pIC50 lookup, key: Cn1c(=O)n(C)c2cc(C(=O)NCC3CCN(Cc4ccccc4F)CC3)ccc21
4.79

// pIC50 lookup, key: Cc1cccc(CN2CCC(CNC(=O)c3ccc4c(c3)n(C)c(=O)n4C)CC2)c1
5.42

// pIC50 lookup, key: Cn1c(=O)n(C)c2cc(C(=O)NCC3CCN(Cc4ccccc4)CC3)ccc21
5.50

// pIC50 lookup, key: Cn1c(=O)n(C)c2cc(C(=O)NCC3CCN(Cc4ccccc4Cl)CC3)ccc21
5.41

// pIC50 lookup, key: Cc1cccc(CN2CCC(CNS(=O)(=O)c3ccc4c(c3)n(C)c(=O)n4C)CC2)c1 [Compound 15c]
6.27

###

Would you kindly list pIC50 for each of these compounds?
Remember, pIC50 is on a log scale: it is -log10 of the molar concentration.

Query for AChE (EC 3.1.1.7) from human (Homo sapiens, UniProt P22303): what pIC50 does the record show for Cn1c(=O)n(C)c2cc(S(=O)(=O)NCC3CCN(Cc4cccc(Br)c4)CC3)ccc21 [Compound 15j] ?
5.90

Query for AChE (EC 3.1.1.7) from human (Homo sapiens, UniProt P22303): what pIC50 does the record show for Cc1ccccc1CN1CCC(CNS(=O)(=O)c2ccc3c(c2)n(C)c(=O)n3C)CC1 [Compound 15b] ?
5.83

###

Would you kindly list SI (selectivity index = AChE IC50/BChE IC50) for each of these compounds?
biological target: AChE (EC 3.1.1.7) from electric eel (Electrophorus electricus); construct: purchased Sigma-Aldrich; assay: biochemical; type: biochemical; settings: eeAChE IC50 / eqBChE IC50
Field format: numeric only.

// SI (selectivity index = AChE IC50/BChE IC50) lookup, key: Cc1cccc(CN2CCC(CNS(=O)(=O)c3ccc4c(c3)n(C)c(=O)n4C)CC2)c1 [Compound 15c]
1.14

// SI (selectivity index = AChE IC50/BChE IC50) lookup, key: Cn1c(=O)n(C)c2cc(S(=O)(=O)NCC3CCN(Cc4ccccc4)CC3)ccc21 [Compound 15a]
0.84

// SI (selectivity index = AChE IC50/BChE IC50) lookup, key: Cn1c(=O)n(C)c2cc(S(=O)(=O)NCC3CCN(Cc4cccc(Br)c4)CC3)ccc21 [Compound 15j]
2.44

// SI (selectivity index = AChE IC50/BChE IC50) lookup, key: Cn1c(=O)n(C)c2cc(S(=O)(=O)NCC3CCN(Cc4cccc(Cl)c4)CC3)ccc21 [Compound 15g]
0.15

// SI (selectivity index = AChE IC50/BChE IC50) lookup, key: Cc1ccc(CN2CCC(CNS(=O)(=O)c3ccc4c(c3)n(C)c(=O)n4C)CC2)cc1 [Compound 15d]
0.24

// SI (selectivity index = AChE IC50/BChE IC50) lookup, key: O=C(NCC1CCN(Cc2ccccc2Cl)CC1)c1ccc2[nH]ncc2c1 [Compound 11c]
0.26

// SI (selectivity index = AChE IC50/BChE IC50) lookup, key: Cn1c(=O)n(C)c2cc(S(=O)(=O)NCC3CCN(Cc4cccc(F)c4)CC3)ccc21 [Compound 15f]
0.75

// SI (selectivity index = AChE IC50/BChE IC50) lookup, key: Cn1c(=O)n(C)c2cc(S(=O)(=O)NCC3CCN(Cc4ccc(Cl)cc4)CC3)ccc21 [Compound 15h]
0.87

// SI (selectivity index = AChE IC50/BChE IC50) lookup, key: COc1cccc(CN2CCC(CNS(=O)(=O)c3ccc4c(c3)n(C)c(=O)n4C)CC2)c1 [Compound 15e]
0.45

// SI (selectivity index = AChE IC50/BChE IC50) lookup, key: COc1ccc(CN2CCC(CNC(=O)c3ccc4[nH]ccc4c3)CC2)cc1 [Compound 11a]
3.54

// SI (selectivity index = AChE IC50/BChE IC50) lookup, key: Cn1c(=O)n(C)c2cc(C(=O)NCC3CCN(Cc4ccc(F)cc4)CC3)ccc21 [Compound 9j]
1.27
